Test: Intrinsic clearance in human liver microsomes at 1 uM preincubated with NADPH for 5 mins followed by compound addition and measured upto 30 mins by LC-MS/MS analysis
Format: ADME, Microsome
Conditions: read-out: CLH

structure string	modifier sign	microsomal CLint at 1 µM, µL/min/mg
Cc1ncccc1-c1cnc(NCc2c(F)ccc3c2CCO3)c2n[nH]c(=O)n12	=	8
C[C@@H]1CC(=O)N(c2cnc(NCc3c(F)ccc4c3CCO4)n3cnnc23)C1	<	3
O=C1Oc2ccccc2CN1c1cnc(NCc2c(F)ccc3c2CCO3)n2cnnc12	=	24
CN(c1ccccc1)c1cnc(NCc2c(F)ccc3c2CCO3)n2cnnc12	=	55
Cc1cc(-c2cnc(NCc3c(F)ccc4c3CCO4)c3cn[nH]c(=O)c23)n(C)n1	=	24

====

Here the recorded microsomal CLint at 1 µM is given for each entry.
Test: Intrinsic clearance in human liver microsomes at 1 uM preincubated with NADPH for 5 mins followed by compound addition and measured upto 30 mins by LC-MS/MS analysis
Format: ADME, Microsome
Settings: read-out: CLH

structure string	modifier sign	microsomal CLint at 1 µM, µL/min/mg
CN(c1cnn(C)c1)c1cnc(NCc2c(F)ccc3c2CCO3)n2cnnc12	=	8.9
CN(c1ccncc1)c1cnc(NCc2c(F)ccc3c2CCO3)n2cnnc12	=	5.2
O=C1CC2(CC2)CN1c1cnc(NCc2c(F)ccc3c2CCO3)n2cnnc12	<	3
Cc1ncc(-c2cnc(NCc3c(F)ccc4c3CCO4)c3cn[nH]c(=O)c23)n1C	=	10
CN(c1ccn(C)n1)c1cnc(NCc2c(F)ccc3c2CCO3)n2cnnc12	=	11
CC(=O)N1CCC(c2cnc(NCc3c(F)ccc4c3CCO4)c3cn[nH]c(=O)c23)CC1	=	207
O=C(Nc1cnc(NCc2c(F)ccc3c2CCO3)n2cnnc12)c1cccnc1	<	3
CN(C)Cc1ccc2c(c1)CN(c1cnc(NCc3c(F)ccc4c3CCO4)n3cnnc13)C2=O	=	19
O=C1CCCN1c1cnc(NCc2c(F)ccc3c2CCO3)c2cn[nH]c(=O)c12	=	23
O=C1c2cnccc2CN1c1cnc(NCc2c(F)ccc3c2CCO3)n2cnnc12	=	5

====

Assay: Lipophilicity, logD of the compound in Octanol/phosphate buffer at pH 7.4 after 30 mins by shake-flask method
Assay type: physicochemical
attribute measured: logD at 0.5 h

structure string	reported result
CNC(=O)c1cc(-c2cnc(NCc3c(F)ccc4c3CCO4)c3cn[nH]c(=O)c23)n(C)n1	2.1
CN(C)Cc1ccc(C(=O)Nc2cnc(NCc3c(F)ccc4c3CCO4)n3cnnc23)cc1	1.8
CN(c1ccn(C)n1)c1cnc(NCc2c(F)ccc3c2CCO3)c2cn[nH]c(=O)c12	2.4
C[C@@H]1CC(=O)N(c2cnc(NCc3c(F)ccc4c3CCO4)n3cnnc23)C1	1.8
Cc1ncc(-c2cnc(NCc3c(F)ccc4c3CCO4)c3cn[nH]c(=O)c23)n1C	1.9
Cc1nc(C(=O)N(C)C)ccc1-c1cnc(NCc2c(F)ccc3c2CCO3)c2cn[nH]c(=O)c12	2.1
Fc1ccc2c(c1CNc1ncc(Oc3ccccc3)c3nncn13)CCO2	3.5

====

Test: Intrinsic clearance in human liver microsomes at 1 uM preincubated with NADPH for 5 mins followed by compound addition and measured upto 30 mins by LC-MS/MS analysis
Assay type: ADME, Microsome
Conditions: read-out: CLH
attribute measured: microsomal CLint at 1 µM (µL/min/mg)

structure string	attribute measured	modifier sign	reported result
CN(C)Cc1ccc(C(=O)Nc2cnc(NCc3c(F)ccc4c3CCO4)n3cnnc23)cc1	microsomal CLint at 1 µM	=	13
Fc1ccc2c(c1CNc1ncc(Oc3ccccc3)c3nncn13)CCO2	microsomal CLint at 1 µM	=	18
Fc1ccc2c(c1CNc1ncc(Nc3ccccc3)c3nncn13)CCO2	microsomal CLint at 1 µM	=	20
CNC(=O)c1cc(-c2cnc(NCc3c(F)ccc4c3CCO4)c3cn[nH]c(=O)c23)n(C)n1	microsomal CLint at 1 µM	<	3
COCCC(=O)Nc1cnc(NCc2c(F)ccc3c2CCO3)n2cnnc12	microsomal CLint at 1 µM	<	3
C[C@H]1CC(=O)N(c2cnc(NCc3c(F)ccc4c3CCO4)n3cnnc23)C1	microsomal CLint at 1 µM	<	3
